test system: MS2 coat protein; assay: apparent KD of MS2 coat protein, switch OFF state (with FMN for OFF switches, without FMN for ON switches); designed switch direction (-1 OFF switch, 1 ON switch): -1; higher = weaker reporter binding; details: FMN input: 0 or 200 uM; Eterna round: R93 (includes R88 designs)
Criterion: apparent KD of MS2 coat protein meeting or surpassing 60 nM. Met: class 1. Not met: class 0.

Examples from the recorded data:
>  <sequence_data>
AAAAAACAUGAGGAUCACCCAUGUAAGGAUAUGCUAAAAAACACGGAAAACGUGAAUAGCAGAAGGUACAAAAG [Mat - Exclusion 1 - Eli mod - D84]

>  <assigned_class>
class 1

$$$$
>  <sequence_data>
CAGUACUGAGGAUAUACAUGAGGAUCACCCAUGUGAUCAAGCUACGAAAGUAGCACAUGUAGAAGGCAGUACUG [Ex3: 808]

>  <assigned_class>
class 0

$$$$
>  <sequence_data>
AAGAAGUCAGGAUAUGCUGCUCGUCACAAAAGUGAUGAGUAGCAGAAGGGACAUGAGGAUCACCCAUGUAAAGA [JL eternac mod 0]

>  <assigned_class>
class 1

$$$$
>  <sequence_data>
AUGUACCUAGGAUAUACAUGAGGAUCACCCAUGUAUUGGGAGCAAUCCAGUUAAUAUUGUAGAAGGAGGUGAAA [JR_Exc003_Sub317]

>  <assigned_class>
class 1

$$$$
>  <sequence_data>
AAUAUGUAAGGAUAUGCUGCUCGUCACAAAAGUGAUGAGUAGCAGAAGGUACAUGAGGAUCACCCAUGUAAAGA [JL eternac mod 13]

>  <assigned_class>
class 0

$$$$
>  <sequence_data>
AAGAAGCAAGGAUAUACAUGAAAGAAAGAAAAGAAAAGAAAACAUGAGGAUCACCCAUGUAGAAGGUGCUAGAA [EteRNA is fun!]

>  <assigned_class>
class 0

$$$$
>  <sequence_data>
AACAGUACAGGAUAUACAUGAGGAUCACCCAUGUGAAAAUUAAGUGGAAAACCACAAUGUAGAAGGGUACUGGA [Mat - Exclusion 3 - Eli mod - D49]

>  <assigned_class>
class 1

$$$$
>  <sequence_data>
AAAAAGGGAGGAUAUACAUGAGGAUCACCCAUGUAAAACAAAAAAACAAAAAAAAAAAGUAGAAGGCCCAAAAA [Default title]

>  <assigned_class>
class 0

$$$$
>  <sequence_data>
GGUUGGCGAGGAUAUACAUGAGGAUCACCCAUGUGAGAGAAAAAAGUGAGAAUGAAAAGUAGAAGGCGCUGACG [salish99-ex3-35]

>  <assigned_class>
class 1

$$$$
>  <sequence_data>
ACUAACGGAGGAUAUACUAACAAACCUCAAACAUACAUCAAACAUGAGGAUCACCCAUGUAGAAGGCCGAAACU [JR_Exc002_Sub004]

>  <assigned_class>
class 0

$$$$

// query Does apparent KD of MS2 coat protein meet or surpass 60 nM for AAAAAACAUGAGGAUCACCCAUGUAAGGAUAUGCUCGUAAGUGCGAAAGCACAAAUGAGCAGAAGGUACAAAAA [66%, Wbt, 44] ?
// result class 0

// query Does apparent KD of MS2 coat protein meet or surpass 60 nM for UACGUAUGAGGAUAUACAAACAGAAAAAUCAGACAUAACUGACAUGAGGAUCACCCAUGUAGAAGGCAUAUACA [JR_Exc002_Sub904] ?
// result class 0

// query Does apparent KD of MS2 coat protein meet or surpass 60 nM for AAAGGAGUAGGAUAUACAUGAGGAUCACCCAUGUAAAAAACAUAAUAAAAGAACUUAUGUAGAAGGGCUCCAAA [69%, Moding Meechl, 11] ?
// result class 1
